Target: IKKε (Homo sapiens, UniProt Q14164)
Sequence (Q14164 whole entry, species assumed): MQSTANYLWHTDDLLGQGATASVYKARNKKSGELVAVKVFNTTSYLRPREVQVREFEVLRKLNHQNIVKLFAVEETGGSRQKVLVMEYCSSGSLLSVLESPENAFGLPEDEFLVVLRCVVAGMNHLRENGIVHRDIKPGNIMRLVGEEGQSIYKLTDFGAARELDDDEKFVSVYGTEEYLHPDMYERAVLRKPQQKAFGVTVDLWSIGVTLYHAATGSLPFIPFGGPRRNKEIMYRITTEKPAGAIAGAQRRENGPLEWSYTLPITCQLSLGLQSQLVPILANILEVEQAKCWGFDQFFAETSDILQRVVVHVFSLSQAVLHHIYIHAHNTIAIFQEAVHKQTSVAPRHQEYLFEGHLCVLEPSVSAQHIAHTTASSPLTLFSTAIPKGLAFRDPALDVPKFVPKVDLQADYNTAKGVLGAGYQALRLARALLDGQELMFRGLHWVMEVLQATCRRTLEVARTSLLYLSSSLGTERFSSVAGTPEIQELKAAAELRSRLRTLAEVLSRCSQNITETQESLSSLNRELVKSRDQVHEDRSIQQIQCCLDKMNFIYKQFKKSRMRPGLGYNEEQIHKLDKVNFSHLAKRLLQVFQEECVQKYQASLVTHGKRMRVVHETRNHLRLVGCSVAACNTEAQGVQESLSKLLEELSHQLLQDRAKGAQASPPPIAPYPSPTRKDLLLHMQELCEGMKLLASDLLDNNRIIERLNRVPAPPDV
Test: IKKe Biochemical Assay
Conditions: read-out: IKKε IC50
Counter-ions that a name gives are not always drawn.
measure_name: IC50

[[record]]
compound = "COc1cc(C(=O)NCCC2CCNCC2)ccc1-c1cc2nccc(-c3ccc(OC4CCOCC4)c(C#N)c3)c2o1 [Compound 118, hydrochloride]"
measure_name = "IC50"
recorded_value = "< 100 nM"

[[record]]
compound = "COc1cc(C(=O)N(C)CCO)cnc1-c1cc2nccc(-c3ccc(OC4CCOCC4)c(C#N)n3)c2o1 [Compound 327, hydrochloride]"
measure_name = "IC50"
recorded_value = "< 100 nM"


We next turn to a different compound, shown below.
Q: Please supply the value of reported IC50 for the item COc1cc(C(=O)N2CCC(CO)C2)ccc1-c1cc2nccc(-c3ccc(NC4CCOCC4)c(C#N)c3)c2o1 (stereo not drawn)
A: < 100 nM

----------
Provide the reported IC50 of each item.
Target: TBK1 (Homo sapiens)
Sequence (Q9UHD2 1-729): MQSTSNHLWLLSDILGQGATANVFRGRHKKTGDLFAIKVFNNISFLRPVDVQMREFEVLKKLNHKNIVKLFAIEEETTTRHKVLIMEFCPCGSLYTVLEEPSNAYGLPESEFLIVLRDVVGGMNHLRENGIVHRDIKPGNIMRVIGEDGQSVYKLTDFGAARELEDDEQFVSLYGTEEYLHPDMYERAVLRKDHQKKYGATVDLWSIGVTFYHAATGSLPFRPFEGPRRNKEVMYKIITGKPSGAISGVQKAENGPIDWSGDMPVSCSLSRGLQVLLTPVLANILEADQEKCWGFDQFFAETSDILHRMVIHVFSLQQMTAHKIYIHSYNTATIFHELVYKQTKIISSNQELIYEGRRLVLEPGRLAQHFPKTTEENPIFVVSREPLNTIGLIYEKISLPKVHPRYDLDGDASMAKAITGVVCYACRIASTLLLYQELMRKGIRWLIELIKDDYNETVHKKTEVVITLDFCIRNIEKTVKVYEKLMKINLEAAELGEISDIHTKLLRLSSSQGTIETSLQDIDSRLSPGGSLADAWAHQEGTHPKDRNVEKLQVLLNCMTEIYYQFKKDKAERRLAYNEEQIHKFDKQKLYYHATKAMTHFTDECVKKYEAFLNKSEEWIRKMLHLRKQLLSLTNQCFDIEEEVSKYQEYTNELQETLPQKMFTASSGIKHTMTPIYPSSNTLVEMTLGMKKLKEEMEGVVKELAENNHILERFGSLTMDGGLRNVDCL
Assay: TBK Biochemical Assay
Conditions: read-out: TBK1 IC50

Take each entry in turn and give its IC50.
1. CN(C)C(=O)c1ccc(-c2cc3nccc(-c4ccc(Oc5ccccc5F)c(C#N)c4)c3o2)cc1
2. COc1cc(C(=O)N2CC3C2CCN3C)ccc1-c1cc2nccc(-c3ccc(OC4CCOCC4)c(C#N)c3)c2o1 (stereo not shown)

A:
1. 100 to 1000 nM
2. < 100 nM

Go through the list and state IC50 for each entry.
1. COc1cc(C(=O)N2CC3CCC2CO3)ccc1-c1cc2nccc(-c3ccc(OC4CCOCC4)c(C#N)c3)c2o1 (stereo not shown)
2. CC(C)(C)OC(=O)Nc1ccc(-c2cc3nccc(-c4ccc(OC5CCOCC5)c(C#N)c4)c3o2)cc1

A:
< 100 nM
1000 to 5000 nM
